Cited source: patent US11178873B2

System: barnyardgrass (Echinochloa crus-galli)
Experiment: Test A preemergence, barnyardgrass
Assay type: in vivo
Details: 125 g ai/ha, 0 to 100 scale, 0 no effect, 100 complete control
Reported Plant response rating, Barnyardgrass values for a set of compounds
Please reply with the value in numeric form only.

Answered cases to consult:
{"Compound": "O=C1NCC(c2ccccc2)N1C(=O)Nc1cccc(F)c1F (centres unmarked) [Compound 12]", "Property measured": "Plant response rating, Barnyardgrass", "Numeric readout": 20}
{"Compound": "O=C1NCC(c2ccccc2)N1C(=O)Nc1ccccc1F (centres unmarked) [Compound 5]", "Property measured": "Plant response rating, Barnyardgrass", "Numeric readout": 0}
{"Compound": "O=C1NCC(c2ccc(F)c(F)c2)N1C(=O)Nc1ccccc1 (centres unmarked) [Compound 7]", "Property measured": "Plant response rating, Barnyardgrass", "Numeric readout": 0}
{"Compound": "O=C1CCC(c2ccc(Cl)cc2)N1C(=O)Nc1ccccc1C(F)(F)F (centres unmarked) [Compound 23]", "Property measured": "Plant response rating, Barnyardgrass", "Numeric readout": 0}

[ask] Any idea what its Plant response rating, Barnyardgrass is? The compound is CN1CC(c2ccc(C(F)(F)F)cc2)N(C(=O)Nc2ccccc2F)C1=O (centres unmarked) [Compound 13]
[reply] 0

[ask] Which Plant response rating, Barnyardgrass value belongs to CN1CC(c2cccc(C(F)(F)F)c2)N(C(=O)Nc2ccc(F)cc2F)C1=O (centres unmarked) [Compound 17] ?
[reply] 50

[ask] Please look up its Plant response rating, Barnyardgrass: O=C(Nc1ccccc1C(F)(F)F)N1C(=O)OCC1c1ccc(F)c(F)c1 (centres unmarked) [Compound 1]
[reply] 0

[ask] Suppose we examine the compound CN1CC(c2cccc(C(F)(F)F)c2)N(C(=O)Nc2cccc(F)c2F)C1=O (centres unmarked) [Compound 18] ; what Plant response rating, Barnyardgrass value has been reported?
[reply] 70
